# Tested on: HL-60
# PROTOCOL_SUMMARY: Antiproliferative activity against human HL-60 cells assessed as cell cycle distribution at 0.0001 uM to 1 uM after 3 days by FACS relative to ATRA
# Type: functional
What Activity was measured for each of the following?
# answer = number (no unit)

Q: Given CC(=C/C=C/C(C)=C/C(=O)O)/C=C/C1=C(CC(C)C)CCCC1(C)C , state its recorded Activity.
A: 16

Q: Then CC(/C=C/C1=C(CC(C)C)CCCC1(C)C)=C\C=C\C(C)=C\C(=O)O ?
A: 35

Q: Then CC(/C=C/C1=C(Cc2ccccc2)CCCC1(C)C)=C\C=C\C(C)=C\C(=O)O ?
A: 2

Q: Then CCCCC1=C(/C=C/C(C)=C/C=C/C(C)=C/C(=O)O)C(C)(C)CCC1 ?
A: 193

Q: Then CCCCC1=C(/C=C/C(C)=C\C=C\C(C)=C\C(=O)O)C(C)(C)CCC1 ?
A: 14

Q: Then CC(=C/C=C/C(C)=C/C(=O)O)/C=C/C1=C(Cc2ccccc2)CCCC1(C)C ?
A: 11
